# assaySystem: human plasmin (Homo sapiens, UniProt P00747)
# Sequence (P00747 581-810 limits assumed): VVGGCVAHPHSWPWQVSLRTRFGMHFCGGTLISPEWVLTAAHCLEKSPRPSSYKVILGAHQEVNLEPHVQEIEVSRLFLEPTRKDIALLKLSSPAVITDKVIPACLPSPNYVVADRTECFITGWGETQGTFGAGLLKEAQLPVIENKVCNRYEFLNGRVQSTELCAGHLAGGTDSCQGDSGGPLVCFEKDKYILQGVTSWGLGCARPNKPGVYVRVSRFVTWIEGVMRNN
# Sequence (P00747 97-580 partner limits assumed): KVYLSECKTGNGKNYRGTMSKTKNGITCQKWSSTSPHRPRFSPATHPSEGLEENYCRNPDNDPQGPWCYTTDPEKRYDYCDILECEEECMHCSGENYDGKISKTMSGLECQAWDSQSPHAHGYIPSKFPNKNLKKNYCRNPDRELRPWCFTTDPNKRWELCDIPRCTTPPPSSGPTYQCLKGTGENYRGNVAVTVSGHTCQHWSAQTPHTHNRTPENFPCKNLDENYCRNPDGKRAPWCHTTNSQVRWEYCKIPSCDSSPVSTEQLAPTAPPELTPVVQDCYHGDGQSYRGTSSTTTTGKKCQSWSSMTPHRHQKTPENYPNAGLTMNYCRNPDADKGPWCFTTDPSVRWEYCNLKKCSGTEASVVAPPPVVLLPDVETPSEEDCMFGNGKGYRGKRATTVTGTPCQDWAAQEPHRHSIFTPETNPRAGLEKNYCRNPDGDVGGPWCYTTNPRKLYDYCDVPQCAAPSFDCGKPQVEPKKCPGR
# procedureDetails: Antiplasmin activity: inhibition of S-2251 decomposition
# Type: biochemical
# measurementParameters: Table 2; substrate S-2251, pH 7.4, 37°C; read-out: Plasmin S-2251 (concentration I₅₀)
pIC50: −log10 of the molar value. Counter-ions that a name gives are not always drawn.
quantityName: pIC50

1. NCCCCCC(=O)N[C@@H](Cc1ccc(O)cc1)C(=O)Nc1ccc(C(=O)c2ccccc2)cc1 [compound 7]: < 4.00
2. NCCCC(=O)N[C@@H](Cc1ccccc1)C(=O)Nc1ccc(C(=O)c2ccccc2)cc1 [compound 1]: 4.64
3. N=C(N)NC[C@H]1CC[C@H](C(=O)N[C@@H](Cc2ccc([N+](=O)[O-])cc2)C(=O)Nc2ccc(C(=O)c3ccccc3)cc2)CC1 [compound 31]: < 4.00
4. CN(Cc1ccncc1)C(=O)[C@H](Cc1ccccc1)NC(=O)c1ccc(NC(=N)N)cc1 [compound 19]: < 3.00
5. Cc1ccc(NC(=O)[C@H](Cc2ccccc2)NC(=O)c2ccc(NC(=N)N)cc2)cc1 [compound 13, hydrochloride]: < 3.00
6. CN(Cc1ccncc1)C(=O)[C@H](Cc1ccccc1)NC(=O)CCCCCN [Compound No. 6, dihydrochloride]: < 3.00

// below: pIC50 requested for another molecule
### Prompt Data request, read-out pIC50, for CC(=O)c1ccc(NC(=O)[C@H](Cc2ccccc2)NC(=O)c2ccc(NC(=N)N)cc2)cc1 [compound 15]
### Response < 3.40

----------
# assaySystem: human plasmin (Homo sapiens, UniProt P00747)
# procedureDetails: Antiplasmin activity: inhibition of fibrin decomposition
# Format: biochemical
# measurementParameters: Table 2; concentration at which fibrin dissolution time is extended twice, pH 7.4, 37°C; read-out: Plasmin Fibrin (concentration I₅₀)
Each entry below carries its recorded IC50.

Recorded IC50, per entry:
1) CCOC(=O)CC(O)CNC(=O)[C@H](Cc1ccccc1)NC(=O)CCCCN (stereo partly drawn) [Compound No. 3]: > 1000 µM
2) COC(=O)[C@@H]1CCCN1C(=O)[C@H](Cc1ccccc1)NC(=O)c1ccc(NC(=N)N)cc1 [compound 22]: > 1000 µM

Next up:
### Prompt Please look up its IC50: CC(=O)c1ccc(NC(=O)[C@H](Cc2ccccc2)NC(=O)c2ccc(NC(=N)N)cc2)cc1 [compound 15]
### Response > 200 µM

----------
# assaySystem: human plasmin (Homo sapiens, UniProt P00747)
# procedureDetails: Antiplasmin activity: inhibition of S-2251 decomposition
# Format: biochemical
# measurementParameters: Table 2; substrate S-2251, pH 7.4, 37°C; read-out: Plasmin S-2251 (concentration I₅₀)
# Experimental: (ii) Determination of inhibition activity on S-225l decomposition An inhibitor sample is dissolved in a 0.05 M Tris-hydrochloric acid buffer solution (pH = 7.4) to bring the total volume to 400 µl. […] Thus, the concentration I₅₀ (µmol) of the inhibitor sample, at which the absorbance is one half (i.e., l/2) of that obtained in the absence of the inhibitor, is determined.
pIC50: −log10 of the molar value.
Let's look at some molecules and their measured pIC50.

For orientation, consider the following solved cases.
1. COC(=O)[C@@H]1CCCN1C(=O)[C@H](Cc1ccccc1)NC(=O)c1ccc(NC(=N)N)cc1: < 3.00
2. CCOC(=O)CC(O)CNC(=O)[C@H](Cc1ccccc1)NC(=O)CCCCCN (stereo partly drawn): < 3.30

Here's the next entry for you.
### Prompt Form entry - test system: human plasmin (Homo sapiens, UniProt P00747); read-out: pIC50; molecule: CCOC(=O)CC(O)CNC(=O)[C@H](Cc1ccccc1)NC(=O)CCCCN (stereo partly drawn)
### Response < 3.00
